From: patent US7439359B2

Target: Hsp90alpha (Homo sapiens, UniProt P07900)
Assay: Solid phase competition assay with GM-beads, Hsp90 alpha immunoblot
Conditions: competition with immobilized GM; unit inferred; read-out: EC50 Hsp90 α
pEC50: −log10 of the molar value.
Returns one of Met or Not met; Met when pEC50 is >= 5.

Known results for compounds:
>>> answer_label("COc1cc(Cc2nc3c(N)ncnc3n2CC(C)C)cc(OC)c1OC [PU41]")
"Not met"
>>> answer_label("COc1cc(Cc2nc3c(N)ncnc3n2CCOC(C)C)cc(OC)c1OC [PU29]")
"Met"
>>> answer_label("COc1cc(Cc2nc3c(N)nc(F)nc3n2CCOC(C)C)cc(OC)c1OC [PU29F]")
"Met"
>>> answer_label("CCCCn1c(Cc2c(Br)c(OC)c(OC)c(OC)c2Br)nc2c(N)ncnc21 [PU3PhBr2]")
"Not met"
>>> answer_label("COc1cc(Cc2nc3c(N)ncnc3n2CC2CCCCC2)cc(OC)c1OC [PU4]")
"Not met"

**Query** Reported pEC50 reaches at least 5 for C=CCCn1c(Cc2cc(OC)c(OC)c(OC)c2)nc2c(N)ncnc21 [PU8] ?
**Result** Met

**Query** Also need COCCn1c(Cc2cc(OC)c(OC)c(OC)c2)nc2c(N)ncnc21 [PU44] , thanks.
**Result** Met

**Query** Next up: COc1cc(Cc2nc3c(N)nc(F)nc3n2CCOC(C)C)c(Cl)c(OC)c1OC [PU29FCl]
**Result** Met

----------
Molecular target: Hsp90 beta (Homo sapiens)
Assay: Solid phase competition assay with GM-beads, Hsp90 beta immunoblot
Conditions: competition with immobilized GM; unit inferred; read-out: EC50 Hsp90 β
Please respond with reported EC50 for every item in the list.
Answers are plain numbers, in µM.

These recorded examples may help you get a feel for the data.
>>> measurement("CCCn1c(Cc2cc(OC)c(OC)c(OC)c2)nc2c(N)nc(F)nc21 [PU43F]")
5.3
>>> measurement("C#CCCn1c(Cc2cc(OC)c(OC)c(OC)c2)nc2c(N)nc(F)nc21 [PU48F]")
3.5
>>> measurement("CC#CCCn1c(Cc2cc(OC)c(OC)c(OC)c2)nc2c(N)nc(F)nc21 [PU49F]")
10.4
>>> measurement("CCCCCn1c(Cc2cc(OC)c(OC)c(OC)c2)nc2c(N)ncnc21")
11.8
>>> measurement("CCCCn1c(Cc2cc(OC)c(OC)c(OC)c2Br)nc2c(N)ncnc21")
11.7

Hey, quick one: what's EC50 for each of these?
1. COc1cc(Cc2nc3c(N)nc(F)nc3n2CC2CCC2)cc(OC)c1OC [PU16F]
2. CCCCn1c(Cc2cc(OC)c(OC)c(OC)c2)nc2c(N)nc(F)nc21
3. C#CCCCn1c(Cc2cc(OC)c(OC)c(OC)c2)nc2c(N)nc(F)nc21 [PU24F]

**Result**
1. 9.2
2. 3.5
3. 0.7

----------
Test system: MCF-7
Assay: Growth inhibition, sulforhodamine B assay
Format: cell-based, human
Conditions: Homo sapiens, MCF7, 72 hours, unit inferred
test_readout: IC50 (µM)
One number for each entry, in µM.

These solved cases illustrate the format of a correct answer.
>>> measurement("COc1cc(Cc2nc3c(N)nc(F)nc3n2CCOC(C)C)cc(OC)c1OC [PU29F]")
16
>>> measurement("CC#CCCn1c(Cc2cc(OC)c(OC)c(OC)c2)nc2c(N)nc(F)nc21 [PU49F]")
37
>>> measurement("COc1cc(Cc2nc3c(N)nc(F)nc3n2CCOC(C)C)c(Cl)c(OC)c1OC [PU29FCl]")
5.4

Provide IC50 for all items below, preserving their order.
1. COc1cc(Cc2nc3c(N)ncnc3n2CC2CCCO2)cc(OC)c1OC (stereo not shown) [PU20]
2. C#CCCCn1c(Cc2cc(OC)c(OC)c(OC)c2)nc2c(N)nc(F)nc21 [PU24F]
3. C#CCCCn1c(Cc2cc(OC)c(OC)c(OC)c2Cl)nc2c(N)nc(F)nc21 [PU24FCl]
4. CC[C@H](C)Cn1c(Cc2cc(OC)c(OC)c(OC)c2)nc2c(N)nc(F)nc21 [PU26F]
5. COc1cc(Cc2nc3c(N)nc(F)nc3n2CC2CCC2)cc(OC)c1OC [PU16F]

**Result**
1. 92
2. 11
3. 2
4. 44
5. 41

----------
Target: Hsp90alpha (Homo sapiens, UniProt P07900)
Test: Solid phase competition assay with GM-beads, Hsp90 alpha immunoblot
Details: competition with immobilized GM; unit inferred; read-out: EC50 Hsp90 α
test_readout: pEC50
Answers are plain numbers, as −log10 of the molar value.

>>> measurement("CCCCCn1c(Cc2cc(OC)c(OC)c(OC)c2)nc2c(N)nc(F)nc21 [PU21F]")
4.66
>>> measurement("C=CCCn1c(Cc2cc(OC)c(OC)c(OC)c2)nc2c(N)nc(F)nc21")
5.30
>>> measurement("COc1cc(Cc2nc3c(N)ncnc3n2CCCC(C)C)cc(OC)c1OC")
4.55
>>> measurement("COc1cc(Cc2nc3c(N)ncnc3n2CC2CCCO2)cc(OC)c1OC (stereo not drawn)")
5.36

Provide each entry's pEC50 from the list below.
1. C#CCCCn1c(Cc2cc(OC)c(OC)c(OC)c2)nc2c(N)nc(F)nc21 [PU24F]
2. CCC(CC)Cn1c(Cc2cc(OC)c(OC)c(OC)c2)nc2c(N)ncnc21
3. COc1cc(Cc2nc3c(N)nc(F)nc3n2CC2CCC2)cc(OC)c1OC [PU16F]
4. C=CCCCn1c(Cc2cc(OC)c(OC)c(OC)c2)nc2c(N)nc(F)nc21 [PU47F]
5. CCCn1c(Cc2cc(OC)c(OC)c(OC)c2)nc2c(N)ncnc21

**Result**
[5.21, 4.21, 4.51, 4.97, 5.18]

----------
Molecular target: Hsp90alpha (Homo sapiens)
Assay: Solid phase competition assay with GM-beads, Hsp90 alpha immunoblot
Conditions: competition with immobilized GM; unit inferred; read-out: EC50 Hsp90 α
Could you please report measured EC50 for the items listed next?
Numbers only, in µM.

As a guide, the following entries are already answered.
>>> measurement("COc1cc(Cc2nc3c(N)nc(F)nc3n2CC2CCCO2)cc(OC)c1OC (centres unmarked) [PU20F]")
2.3
>>> measurement("CC/C=C/Cn1c(Cc2cc(OC)c(OC)c(OC)c2)nc2c(N)ncnc21")
13.3
>>> measurement("CCCCn1c(Cc2cc(OC)c(OC)c(OC)c2Br)nc2c(N)ncnc21")
35.3

Give one value of EC50 per listed compound.
1. CCCn1c(Cc2cc(OC)c(OC)c(OC)c2)nc2c(N)nc(F)nc21 [PU43F]
2. CC#CCCn1c(Cc2cc(OC)c(OC)c(OC)c2)nc2c(N)nc(F)nc21 [PU49F]
3. CCCCn1c(Cc2cc(OC)c(OC)c(OC)c2Cl)nc2c(N)ncnc21 [PU3PhCl]

**Result**
1: 4.1; 2: 15; 3: 18.6

# map each compound to its EC50
1. COc1cc(Cc2nc3c(N)ncnc3n2CC2CC2)cc(OC)c1OC
2. COc1cc(Cc2nc3c(N)ncnc3n2CC2(C)CC2)cc(OC)c1OC

**Result**
1. 12
2. 111

----------
Biological target: UniProt P07900
Assay: Solid phase competition assay with GM-beads, Hsp90 alpha immunoblot
Type: binding
Design: purchased Stressgen SPP-770
Settings: competition with immobilized GM; unit inferred; read-out: EC50 Hsp90 α
test_readout: pEC50
Give bare numbers, as −log10 of the molar value.

>>> measurement("C#CCCCn1c(Cc2cc(OC)c(OC)c(OC)c2)nc2c(N)ncnc21 [PU24]")
5.59
>>> measurement("CCCCn1c(Cc2cc(OC)c(OC)c(OC)c2)nc2c(N)nc(F)nc21 [PU3F]")
5.22
>>> measurement("CCC(C)Cn1c(Cc2cc(OC)c(OC)c(OC)c2)nc2c(N)ncnc21 (stereo not shown) [PU26]")
4.60

Here is the next item to consider.
**Query** Hi! What's the reported pEC50 for COCCn1c(Cc2cc(OC)c(OC)c(OC)c2)nc2c(N)nc(F)nc21 [PU44F] on UniProt P07900?
**Result** 5.10

----------
Biological target: Hsp90 beta (Homo sapiens, UniProt P08238)
Sequence (P08238 whole entry): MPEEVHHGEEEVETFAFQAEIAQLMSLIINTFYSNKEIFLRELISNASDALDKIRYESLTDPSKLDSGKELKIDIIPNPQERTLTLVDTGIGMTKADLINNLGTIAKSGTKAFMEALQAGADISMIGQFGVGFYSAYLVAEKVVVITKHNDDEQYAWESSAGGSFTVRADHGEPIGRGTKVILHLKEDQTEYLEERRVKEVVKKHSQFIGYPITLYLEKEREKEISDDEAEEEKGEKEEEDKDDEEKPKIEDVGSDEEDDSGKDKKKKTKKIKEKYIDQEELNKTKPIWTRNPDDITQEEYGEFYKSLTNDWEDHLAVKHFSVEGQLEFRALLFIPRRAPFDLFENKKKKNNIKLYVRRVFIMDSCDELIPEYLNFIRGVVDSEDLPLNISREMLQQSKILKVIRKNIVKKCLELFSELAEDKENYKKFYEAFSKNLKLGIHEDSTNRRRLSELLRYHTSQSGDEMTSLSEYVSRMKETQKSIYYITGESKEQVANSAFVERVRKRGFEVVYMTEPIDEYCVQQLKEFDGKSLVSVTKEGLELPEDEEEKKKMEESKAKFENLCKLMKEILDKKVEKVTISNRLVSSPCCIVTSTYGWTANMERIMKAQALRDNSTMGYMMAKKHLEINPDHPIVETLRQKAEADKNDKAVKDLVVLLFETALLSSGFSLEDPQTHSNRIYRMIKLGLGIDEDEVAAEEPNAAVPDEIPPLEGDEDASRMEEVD
Assay: Solid phase competition assay with GM-beads, Hsp90 beta immunoblot
Settings: competition with immobilized GM; unit inferred; read-out: EC50 Hsp90 β
test_readout: pEC50
Numbers only, as −log10 of the molar value.

Worked cases, answers included:
>>> measurement("COc1cc(Cc2nc3c(N)ncnc3n2CC2CCCO2)cc(OC)c1OC (stereo not shown)")
5.47
>>> measurement("CCCCn1c(Cc2cc(OC)c(OC)c(OC)c2Cl)nc2c(N)ncnc21 [PU3PhCl]")
5.34
>>> measurement("COc1cc(Cc2nc3c(N)ncnc3n2CCOC(C)C)cc(OC)c1OC")
5.77

Field: pEC50. Fill in for each record below.
1. C#CCCCn1c(Cc2cc(OC)c(OC)c(OC)c2)nc2c(N)ncnc21
2. COc1cc(Cc2nc3c(N)ncnc3n2CCCC(C)C)cc(OC)c1OC
3. C=CCCn1c(Cc2cc(OC)c(OC)c(OC)c2)nc2c(N)ncnc21
4. CC[C@H](C)Cn1c(Cc2cc(OC)c(OC)c(OC)c2)nc2c(N)nc(F)nc21 [PU26F]
5. C=CCCCn1c(Cc2cc(OC)c(OC)c(OC)c2)nc2c(N)nc(F)nc21 [PU47F]
6. COc1cc(Cc2nc3c(N)ncnc3n2CC2CC2)cc(OC)c1OC
7. COc1cc(Cc2nc3c(N)ncnc3n2CC2CCC2)cc(OC)c1OC

**Result**
5.82
3.94
4.97
4.82
5.00
4.79
4.49

# per-item lookup of pEC50; items listed below
1. CCC(C)Cn1c(Cc2cc(OC)c(OC)c(OC)c2)nc2c(N)ncnc21 (stereo not shown)
2. CCCCCn1c(Cc2cc(OC)c(OC)c(OC)c2)nc2c(N)nc(F)nc21 [PU21F]
3. CC/C=C\Cn1c(Cc2cc(OC)c(OC)c(OC)c2)nc2c(N)ncnc21
4. COc1cc(Cc2nc3c(N)ncnc3n2CC2(C)CC2)cc(OC)c1OC
5. COCCn1c(Cc2cc(OC)c(OC)c(OC)c2)nc2c(N)nc(F)nc21 [PU44F]

**Result**
1. 4.80
2. 5.05
3. 4.12
4. 4.32
5. 4.86
